Target: T1, human G-CSF receptor (human, UniProt Q99062 25-836)
T1 sequence (looked up): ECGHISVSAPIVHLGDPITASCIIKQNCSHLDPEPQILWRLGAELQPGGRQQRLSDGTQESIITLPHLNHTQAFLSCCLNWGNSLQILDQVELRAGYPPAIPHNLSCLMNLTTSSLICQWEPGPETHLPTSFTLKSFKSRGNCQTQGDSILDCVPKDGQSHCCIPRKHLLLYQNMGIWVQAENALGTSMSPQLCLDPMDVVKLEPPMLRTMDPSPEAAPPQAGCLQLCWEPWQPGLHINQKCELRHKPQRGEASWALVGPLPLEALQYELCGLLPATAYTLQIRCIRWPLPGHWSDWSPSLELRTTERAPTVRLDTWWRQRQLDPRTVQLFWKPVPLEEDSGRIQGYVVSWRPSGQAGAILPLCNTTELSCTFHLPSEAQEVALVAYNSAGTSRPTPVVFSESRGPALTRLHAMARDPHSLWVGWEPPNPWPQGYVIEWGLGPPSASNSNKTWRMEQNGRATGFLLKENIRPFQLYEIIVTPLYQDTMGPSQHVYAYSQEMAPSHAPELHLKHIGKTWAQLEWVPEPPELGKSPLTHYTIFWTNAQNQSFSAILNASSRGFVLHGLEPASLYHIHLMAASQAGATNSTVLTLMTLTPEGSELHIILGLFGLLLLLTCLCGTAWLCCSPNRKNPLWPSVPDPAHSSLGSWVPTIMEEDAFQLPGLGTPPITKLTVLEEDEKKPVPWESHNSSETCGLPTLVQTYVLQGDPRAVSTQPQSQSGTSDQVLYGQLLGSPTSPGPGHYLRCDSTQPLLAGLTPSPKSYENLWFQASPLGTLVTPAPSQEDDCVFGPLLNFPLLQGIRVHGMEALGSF
Assay: cell-based or functional assay
Assay Endpoint: Specific activity (% of Neupogen®), from EC50 in luciferase reporter assay

Please report the recorded Specific activity (% of Neupogen®), from EC50 in luciferase reporter assay for Single-chain G-CSF dimer PEG12000 (ligand, SPA-PEG 12000 covalently linked to the available PEGylation sites; number and positions not stated) TPLGPASSLPQSFLLKCLEQVRKIQGDGAALQEKLCATYKLCHPEELVLLGHSLGIPWAPLSSCPSQALQLAGCLSQLHSGLFLYQGLLQALEGISPELGPTLDTLQLDVADFATTIWQQMEELGMAPALQPTQGAMPAFASAFQRRAGGVLVASHLQSFLEVSYRVLRHLAQPTPLGPASSLPQSFLLKCLEQVRKIQGDGAALQEKLCATYKLCHPEELVLLGHSLGIPWAPLSSCPSQALQLAGCLSQLHSGLFLYQGLLQALEGISPELGPTLDTLQLDVADFATTIWQQMEELGMAPALQPTQGAMPAFASAFQRRAGGVLVASHLQSFLEVSYRVLRHLAQP .
62 % of Neupogen®
